B1: UFD1L (parent)
chain: EAGGRFVAFSGEGQSLRKKGRKP

variants of: B1; assay: protein stability index of a GFP-peptide fusion (GPS, HEK-293T) (PSI 1-6); higher = more stable; conditions: c terminus: native;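 also: lentivirally expressed fusions sorted by FACS into six bins by GFP to DsRed ratio, PSI derived from sequencing read proportions per bin multiplied by bin number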

- Variant Name: "F6Q"
  protein stability index: 2.17
- Variant Name: "R21K"
  protein stability index: 5
- Variant Name: "R17N"
  protein stability index: 3.46
- Variant Name: "R5P"
  protein stability index: 3.69
- Variant Name: "F6A"
  protein stability index: 3.06
- Variant Name: "K18T"
  protein stability index: 1.97
- Variant Name: "G3P"
  protein stability index: 1.24
- Variant Name: "R5D"
  protein stability index: 4.49
- Variant Name: "R17K"
  protein stability index: 2.88
- Variant Name: "L16S"
  protein stability index: 3.42
- Variant Name: "Q14E"
  protein stability index: 1.58
